test: qHTS assay for identifying genotoxic compounds that show differential cytotoxicity against isogenic chicken DT40 cell lines with known DNA damage response pathways - Rad54/Ku70 mutant cell line (AID 743015); settings: DT40 Rad54/Ku70 mutant viability, CellTiter-Glo, 40 h; series mostly up to 66.8 µM; note: nearly all actives have a fitted effect of over 60% in size
Inconclusive results are not listed. Active and inactive are the calls of the source. Calls come from the whole dose curve; as a rule, active = well fitted cell-killing curve with a large enough effect in the repeat runs; inconclusive = weak or mixed curves; inactive = no such curve, though single readings can be large or run the other way.
Answer with one of the outcomes T = active, F = inactive

The following compounds have reported results that may help.
CN1C(=O)CC(C)(c2ccccc2)C1=O (stereo unspecified) | F
Oc1cc(O)c(Cl)cc1Cl | F
CCCCC(CC)CNCC(CC)CCCC (stereo unspecified) | F

// outcome(item) with item = C[Si]1(C)O[Si](C)(C)O[Si](C)(C)O1 F

What do you have for CC(=O)Oc1ccc2c(c1)CC[C@@H]1[C@@H]2CC[C@]2(C)[C@@H](O)CC[C@@H]12 ? T

What do you have for CN(C)C(=O)Nc1ccc(Oc2ccc(Cl)cc2)cc1 ? T

What do you have for CCCCC(=O)O[C@]1(C(=O)CO)[C@@H](C)C[C@H]2[C@@H]3CCC4=CC(=O)C=C[C@]4(C)[C@@]3(F)[C@@H](O)C[C@@]21C ? T
